# Test system: HCT-15 colon
# Experimental Details: NCI-60 one-dose screen, 48 h (100 = growth as untreated, 0 = no growth, -100 = all killed)
# Experimental Parameters: 10 µM unless noted
About 83,000 compounds went through this panel and 20% of them were active in at least one assay; those are over-represented in the sample as a whole.
Parameter growth: see the listing below.
The reply should be a number in %, with the unit left off.

Completed entries (count: 2):
| Compound | Obs Value |
| --- | --- |
| COC(=O)C(Cc1ccccc1)NC(=O)NC(=O)NC(=O)CI (stereo not given) | 12 |
| CCOC(=O)c1c2c(n(-c3ccc(C#N)cc3)c1-c1ccccc1)C=CCC2 | 76.9 |

IN: Hello, I am looking for reported growth with HCT-15 colon for Cc1ccc(-c2nc3c(c(-c4ccccc4)nn3-c3ccccc3)c(-c3ccc(O)cc3)c2C#N)cc1 . Could you help?
OUT: 28.8

IN: And then C=C1CC[C@H](C(C)C)[C@@H]2[C@H]1[C@H]1CC(=C)[C@@H](O)CC[C@@](C)(O)[C@@H]2O1 , what is it?
OUT: 107

IN: And then O=C(COc1ccc(/C=C2\Cc3ccc(Cl)cc3C2=O)cc1)Nc1nc2ccccc2s1 , what is it?
OUT: 106

IN: And then O=C(CCCCCCSc1nc(-c2ccccc2)cc(-c2ccccc2)n1)NO , what is it?
OUT: 32.6

IN: And then Nc1nc2ccccc2c2c(=O)c3cc(F)ccc3sc12 , what is it?
OUT: 98.6

IN: And then Cc1cc(N2CCCC2)nc(N(CCCNc2ccnc3cc(Cl)ccc23)Cc2ccccn2)n1 , what is it?
OUT: 32.3

IN: And then CN(C)CCS(=O)(=O)Nc1cc(-c2ccc3ncc(C#N)c(Nc4ccc(F)c(Cl)c4)c3c2)cnc1Cl , what is it?
OUT: -14.6

###

# Test system: HOP-92 NSCLC
# Experimental Details: NCI-60 one-dose screen, 48 h (100 = growth as untreated, 0 = no growth, -100 = all killed)
# Experimental Parameters: 10 µM unless noted
The panel holds about 83,000 compounds, 20% with a hit somewhere; the sample as a whole holds those more often.
Parameter growth: see the listing below.
The reply should be a number in %, with the unit left off.

Completed entries (count: 6):
| Compound | Unit Abbreviation | growth |
| --- | --- | --- |
| O=C(COc1ccc(/C=C2\Cc3ccc(Cl)cc3C2=O)cc1)Nc1nc2ccccc2s1 | % | 97 |
| O=C(N/N=C/[C@H](O)[C@@H](O)[C@@H](O)[C@H](O)CO)c1ccc(NC(=O)c2cccnc2)cc1 | % | 111 |
| COc1ccc([C@H]2c3cc(OC)c(OC)cc3C=C(C=O)C2CO)cc1OC (some centres undefined) | % | 36.8 |
| Cc1c(C(=O)NCCN2CCOCC2)cn2ncnc(Oc3ccc(NC(=O)Nc4ccc(Cl)c(C(F)(F)F)c4)cc3)c12 | % | 7.32 |
| Cc1c(C(=O)N[C@@H](Cc2ccccc2)C(=O)C(=O)NCc2ccc(F)cc2)[nH]c2ccccc2c1=O | % | 94.4 |
| COc1cccc(-c2nc(-c3ccc(NC(=O)C(C)C)cc3)[nH]c2-c2ccnc(Br)c2)c1 | % | 43.4 |

IN: I am curious: what growth value has been reported for N#Cc1c(-c2ccc(Cl)cc2)nc2c(c(-c3ccccc3)nn2-c2ccccc2)c1-c1ccc(O)cc1 ?
OUT: 56.4

IN: And then CCOC(=O)NCCc1ccccc1 , what is it?
OUT: 82

IN: And then O=[N+]([O-])c1ccc(Cl)c(-c2cc(CCCCO)on2)c1 , what is it?
OUT: 94.2
